tested on: MDA-MB-468 breast; experiment: NCI-60 one-dose screen, 48 h (100 = growth as untreated, 0 = no growth, -100 = all killed); conditions: 10 µM unless noted
Compounds without any hit were thinned out: in the full panel of roughly 83,000, 20% have a hit.
// reported growth for each item listed

COMPOUND | UNIT_ABBREV | growth
CC(=O)c1c[nH]c2ccc(-c3ccnc(Nc4ccc(NC(=O)c5cccc(F)c5)c(CN5CCOCC5)c4)n3)cc12 | % | -32.9
COc1cccc(/C=C2\Oc3cc(OCCCN4CCCC4)ccc3C2=O)c1 | % | 69.4
Clc1ccc(Cc2nnc3sc(-c4cccnc4)nn23)cc1 | % | 94.2
CCOC(=O)c1c(Cl)c2c(n1Cc1ccccc1)-c1oncc1CCC2 | % | 56
COc1ccc(/C=C(/C)c2ccc3ccc(OC)cc3[o+]2)c(O)c1 | % | 67.7
O=S(=O)(NCCCNc1cc(-c2c(-c3cccc(O)c3)nc3sccn23)ccn1)c1cccc(Cl)c1 | % | 37.2
CC/C=C(\C)C(CCC)(CN=O)C(=O)OCC (stereo not drawn) | % | 113
C/C(=C\CCc1ccoc1)CC/C=C(\C)CCCN1CCOCC1 | % | 5.68
O=CN(SSN(C=O)C1CCCCC1)C1CCCCC1 | % | 108
CC1(/C=C/c2ccc(-c3ccccc3)cc2)CCn2cnc3ncnc(c32)N1O (stereo not drawn) | % | -5.41
CCOc1cc2ncc(C#N)c(Nc3ccc(OCc4cccc(F)c4)c(Cl)c3)c2cc1NC(=O)CCCCC1CCSS1 (stereo not drawn) | % | 70.4
CNC(=O)c1cc(Oc2ccc3nc(NC(=O)c4ccc(CN5CCCN(C)CC5)c(C(F)(F)F)c4)sc3c2)ccn1 | % | 8.05
O=[N+]([O-])c1ccc2[nH]c3nccc(NCc4cccc(Cl)c4)c3c2c1 | % | 69
Clc1ccc(-n2cnc3c(Cl)ncnc32)cc1Cl | % | 48.3
Cc1n[nH]c(C)c1N=Nc1cccc2c1C(=O)c1ccccc1C2=O | % | 96.2
Cn1c(SCC(=O)Nc2ccc(-c3nc4ccc([N+](=O)[O-])cc4[nH]3)cc2)nc2ccccc2c1=O | % | 56.5
NC(=O)c1c(NC(=O)c2ccc(C(F)(F)F)cc2Cl)sc2c1CCC(=O)C2 | % | -33.8
COc1ccc(-c2nsc3c2NC(=O)CC3c2ccc(F)cc2)cc1 (stereo not drawn) | % | 1.54
